# credit: patent US20060205949A1

# assayed.system: hM3 receptor (CHO cells) (Homo sapiens, UniProt P20309)
# Construct: expressed in transfected cells
# Sequence (P20309 whole entry): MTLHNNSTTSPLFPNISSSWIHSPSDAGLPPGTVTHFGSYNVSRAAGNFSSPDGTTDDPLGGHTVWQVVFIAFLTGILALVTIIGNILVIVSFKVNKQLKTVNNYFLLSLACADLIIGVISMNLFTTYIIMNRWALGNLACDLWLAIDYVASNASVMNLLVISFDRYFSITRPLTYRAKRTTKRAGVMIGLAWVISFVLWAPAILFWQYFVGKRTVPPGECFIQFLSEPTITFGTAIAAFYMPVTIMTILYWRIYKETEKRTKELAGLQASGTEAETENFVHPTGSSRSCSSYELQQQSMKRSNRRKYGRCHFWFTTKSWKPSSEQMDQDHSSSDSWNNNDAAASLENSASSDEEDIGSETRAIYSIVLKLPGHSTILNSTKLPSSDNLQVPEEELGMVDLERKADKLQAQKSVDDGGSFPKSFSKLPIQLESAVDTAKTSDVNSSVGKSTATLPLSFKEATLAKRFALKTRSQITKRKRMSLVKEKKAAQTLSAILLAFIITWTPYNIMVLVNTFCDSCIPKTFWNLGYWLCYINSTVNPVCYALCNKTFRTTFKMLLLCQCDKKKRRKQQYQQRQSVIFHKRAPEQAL
# run.description: Blockade of agonist-mediated calcium release via FLIPR
# Format: cell-based
# protocol.conditions: CHO cells stably expressing the hM3 receptor, this or a similar assay
pKi: −log10 of the molar value.
quantity.measured: pKi

Task: Query: pKi; subject: `O=C(CCN1CCC(OC(=O)Nc2ccccc2-c2ccccc2)CC1)NCCCCCNCc1ccc(O)cc1`
Result: > 8.00

====

# assayed.system: hM2 receptor (CHO-K1 cells) (Homo sapiens)
# Construct: expressed in transfected cells; host or cells: CHO-K1 cells
# Sequence (P08172 1-466): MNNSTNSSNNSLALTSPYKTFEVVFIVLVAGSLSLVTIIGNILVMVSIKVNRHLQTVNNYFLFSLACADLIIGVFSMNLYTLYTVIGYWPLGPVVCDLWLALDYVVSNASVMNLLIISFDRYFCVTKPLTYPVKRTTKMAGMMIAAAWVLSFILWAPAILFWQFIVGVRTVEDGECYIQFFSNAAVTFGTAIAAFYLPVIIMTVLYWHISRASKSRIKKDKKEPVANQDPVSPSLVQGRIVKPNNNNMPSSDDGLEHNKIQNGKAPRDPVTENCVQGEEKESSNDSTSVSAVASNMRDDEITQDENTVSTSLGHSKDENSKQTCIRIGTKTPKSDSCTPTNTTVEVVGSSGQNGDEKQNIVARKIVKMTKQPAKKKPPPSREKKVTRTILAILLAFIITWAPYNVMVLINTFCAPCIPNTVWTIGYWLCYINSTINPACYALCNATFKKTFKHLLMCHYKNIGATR
# run.description: Blockade of agonist-mediated [35S]GTPγS binding
# Assay type: biochemical
# protocol.conditions: CHO-K1 cells expressing the hM2 receptor; this or a similar assay; read-out: Ki value for blockade of oxotremorine-stimulated [35S]GTPγS binding
pKi: −log10 of the molar value.
quantity.measured: pKi

Task: Query: pKi; subject: `O=C(CCN1CCC(OC(=O)Nc2ccccc2-c2ccccc2)CC1)NCCCCCNCc1ccc(O)cc1`
Result: > 8.00
